target: PIKfyve (Homo sapiens); construct: endogenous in cells; host or cells: VCaP; experiment: Degradation of PIKfyve proteins in VCaP tumor cells (24 h, Western blot); format: cell-based; settings: 37° C., compared with DMSO control, WB, read-out: DC50 (concentration that achieves 50% degradation activity)
Sequence (Q9Y2I7 whole entry): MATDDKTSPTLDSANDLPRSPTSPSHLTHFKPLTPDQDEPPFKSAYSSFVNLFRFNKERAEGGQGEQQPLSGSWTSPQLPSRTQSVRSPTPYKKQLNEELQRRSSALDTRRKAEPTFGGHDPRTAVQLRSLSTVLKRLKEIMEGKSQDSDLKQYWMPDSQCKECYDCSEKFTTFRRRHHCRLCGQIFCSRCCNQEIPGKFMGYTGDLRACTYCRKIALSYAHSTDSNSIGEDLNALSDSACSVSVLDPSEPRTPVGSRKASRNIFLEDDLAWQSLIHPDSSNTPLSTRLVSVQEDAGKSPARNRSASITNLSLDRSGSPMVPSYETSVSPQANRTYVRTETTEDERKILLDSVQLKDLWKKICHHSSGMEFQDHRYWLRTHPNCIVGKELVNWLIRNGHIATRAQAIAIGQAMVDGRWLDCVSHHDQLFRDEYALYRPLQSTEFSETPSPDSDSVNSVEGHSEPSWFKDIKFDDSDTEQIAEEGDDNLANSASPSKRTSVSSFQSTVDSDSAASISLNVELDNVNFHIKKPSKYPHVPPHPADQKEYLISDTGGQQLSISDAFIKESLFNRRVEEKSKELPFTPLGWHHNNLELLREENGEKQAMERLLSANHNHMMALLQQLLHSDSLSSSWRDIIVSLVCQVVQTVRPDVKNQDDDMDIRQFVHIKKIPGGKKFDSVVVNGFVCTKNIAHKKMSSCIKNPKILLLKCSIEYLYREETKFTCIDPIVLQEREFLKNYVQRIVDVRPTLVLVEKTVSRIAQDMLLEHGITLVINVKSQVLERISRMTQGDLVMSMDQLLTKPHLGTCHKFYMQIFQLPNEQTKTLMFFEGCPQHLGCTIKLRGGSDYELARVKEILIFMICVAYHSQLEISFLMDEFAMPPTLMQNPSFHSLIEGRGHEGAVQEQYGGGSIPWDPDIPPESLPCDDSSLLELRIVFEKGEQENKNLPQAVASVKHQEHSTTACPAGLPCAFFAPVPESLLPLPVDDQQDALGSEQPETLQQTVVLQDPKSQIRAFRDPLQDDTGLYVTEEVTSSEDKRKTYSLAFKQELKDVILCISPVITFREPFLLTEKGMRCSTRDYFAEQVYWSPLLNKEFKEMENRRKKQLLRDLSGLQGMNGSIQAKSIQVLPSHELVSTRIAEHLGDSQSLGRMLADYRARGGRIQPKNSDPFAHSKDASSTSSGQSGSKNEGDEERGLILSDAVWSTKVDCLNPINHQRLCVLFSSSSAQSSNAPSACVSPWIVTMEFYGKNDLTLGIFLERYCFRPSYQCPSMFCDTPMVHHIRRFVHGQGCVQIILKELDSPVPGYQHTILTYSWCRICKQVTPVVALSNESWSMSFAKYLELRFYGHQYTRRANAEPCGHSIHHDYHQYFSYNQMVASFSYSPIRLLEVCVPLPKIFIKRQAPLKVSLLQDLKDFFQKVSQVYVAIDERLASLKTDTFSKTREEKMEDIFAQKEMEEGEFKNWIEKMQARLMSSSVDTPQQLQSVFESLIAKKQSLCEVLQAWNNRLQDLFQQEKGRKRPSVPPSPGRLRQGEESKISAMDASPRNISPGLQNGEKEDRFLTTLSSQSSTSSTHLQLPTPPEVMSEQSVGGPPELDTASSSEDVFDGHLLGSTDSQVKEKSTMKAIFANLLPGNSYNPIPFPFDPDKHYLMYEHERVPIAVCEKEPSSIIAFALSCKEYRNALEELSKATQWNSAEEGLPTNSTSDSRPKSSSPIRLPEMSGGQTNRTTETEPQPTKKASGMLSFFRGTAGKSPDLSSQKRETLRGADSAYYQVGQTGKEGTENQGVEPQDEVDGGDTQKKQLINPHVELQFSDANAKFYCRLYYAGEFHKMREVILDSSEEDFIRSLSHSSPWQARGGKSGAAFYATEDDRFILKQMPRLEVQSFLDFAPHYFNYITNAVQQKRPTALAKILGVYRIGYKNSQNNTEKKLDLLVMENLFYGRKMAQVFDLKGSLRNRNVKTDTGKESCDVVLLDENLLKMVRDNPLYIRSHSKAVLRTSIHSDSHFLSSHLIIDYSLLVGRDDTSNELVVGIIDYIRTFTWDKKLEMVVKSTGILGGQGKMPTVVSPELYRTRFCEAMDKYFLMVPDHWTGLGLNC
test_readout: DC50

Some solved cases for reference:
Cc1cccc(/C=N/Nc2cc(N3CCOCC3)nc(OCCc3ccc(NC(=O)CCCC(=O)N[C@H](C(=O)N4C[C@H](O)C[C@H]4C(=O)NCc4ccc(-c5scnc5C)cc4)C(C)(C)C)cc3)n2)c1    1 to 100 nM
Cc1cccc(/C=N/Nc2cc(N3CCOCC3)nc(OCCc3ccc(NC(=O)CCCCCCCCCNc4ccc5c(c4)C(=O)N(C4CCC(=O)NC4=O)C5=O)cc3)n2)c1 (stereo not shown)    100 to 10000 nM
Cc1cccc(-c2ccn(-c3cc(N4CCOCC4)nc(OC4CCN(c5ccc(NC(=O)C[C@H](NC(=O)[C@@H]6C[C@@H](O)CN6C(=O)[C@@H](NC(=O)C6(F)CC6)C(C)(C)C)c6ccc(-c7scnc7C)cc6)cc5)CC4)n3)n2)c1    1 to 100 nM
Cc1cccc(/C=N/Nc2cc(N3CCOCC3)nc(OCCc3ccc(NC(=O)CCCCCCCCC(=O)N[C@H](C(=O)N4C[C@H](O)C[C@H]4C(=O)N[C@@H](C)c4ccc(-c5scnc5C)cc4)C(C)(C)C)cc3)n2)c1    1 to 100 nM
Cc1cccc(-c2ccn(-c3cc(N4CCOCC4)nc(OCCc4ccc(-c5ccc(NC(=O)C[C@H](NC(=O)[C@@H]6C[C@@H](O)CN6C(=O)[C@@H](NC(=O)C6(F)CC6)C(C)(C)C)c6ccc(-c7scnc7C)cc6)cc5)cc4)n3)n2)c1    1 to 100 nM

Dear colleague, could you send me DC50 for each of the items below? Thanks.
1. Cc1cccc(/C=N/Nc2cc(N3CCOCC3)nc(OCCc3ccc(NC(=O)CCCCCCC(=O)Nc4ccc5c(c4)CN(C4CCC(=O)NC4=O)C5=O)cc3)n2)c1 (stereo not shown)
2. Cc1cccc(/C=N/Nc2cc(N3CCOCC3)nc(OCCc3ccc(NC(=O)CCCCCCCCCC(=O)N[C@H](C(=O)N4C[C@H](O)C[C@H]4C(=O)NCc4ccc(-c5scnc5C)cc4)C(C)(C)C)cc3)n2)c1
3. Cc1cccc(-c2ccn(-c3cc(N4CCOCC4)nc(OCCc4ccc(N5CCN(C(=O)CCCC[C@H](NC(=O)[C@@H]6C[C@@H](O)CN6C(=O)[C@@H](NC(=O)C6(F)CC6)C(C)(C)C)c6ccc(-c7scnc7C)cc6)CC5)cc4)n3)n2)c1
4. Cc1cccc(-c2ccn(-c3cc(N4CCOCC4)nc(OC4CCN(c5ccc(NC(=O)NC6CN(c7cc8c(cc7F)C(=O)N(C7CCC(=O)NC7=O)C8=O)C6)cc5)CC4)n3)n2)c1 (stereo not shown)
5. Cc1cccc(-c2ccn(-c3cc(N4CCOCC4)nc(OCCc4ccc(N5CCN(C(=O)CC[C@H](NC(=O)[C@@H]6C[C@@H](O)CN6C(=O)[C@@H](NC(=O)C6(F)CC6)C(C)(C)C)c6ccc(-c7scnc7C)cc6)CC5)cc4)n3)n2)c1

Given back:
1. 100 to 10000 nM
2. 1 to 100 nM
3. 1 to 100 nM
4. 100 to 10000 nM
5. 1 to 100 nM

Dear colleague, could you send me DC50 for each of the items below? Thanks.
1. Cc1cccc(/C=N/Nc2cc(N3CCOCC3)nc(OCCc3ccc(NC(=O)CCCCCCCCC(=O)Nc4ccc5c(c4)CN(C4CCC(=O)NC4=O)C5=O)cc3)n2)c1 (stereo not shown)
2. Cc1cccc(-c2ccn(-c3cc(N4CCOCC4)nc(OC4CCN(c5ccc(NC(=O)NC6CCN(C(=O)C[C@H](NC(=O)[C@@H]7C[C@@H](O)CN7C(=O)[C@@H](NC(=O)C7(F)CC7)C(C)(C)C)c7ccc(-c8scnc8C)cc7)CC6)cc5)CC4)n3)n2)c1
3. Cc1cccc(/C=N/Nc2cc(N3CCOCC3)nc(OCCc3ccc(NC(=O)CCCCCOc4ccc5c(c4)C(=O)N(C4CCC(=O)NC4=O)C5=O)cc3)n2)c1 (stereo not shown)
4. Cc1cccc(/C=N/Nc2cc(N3CCOCC3)nc(OCCc3ccc(NC(=O)CCCCCNC(=O)CSC(C)(C)[C@H](NC(=O)C4(F)CC4)C(=O)N4C[C@H](O)C[C@H]4C(=O)NCc4ccc(-c5scnc5C)cc4)cc3)n2)c1
5. Cc1cccc(/C=N/Nc2cc(N3CCOCC3)nc(OCCc3ccc(NC(=O)COc4cccc5c4C(=O)N(C4CCC(=O)NC4=O)C5=O)cc3)n2)c1 (stereo not shown)
6. Cc1cccc(/C=N/Nc2cc(N3CCOCC3)nc(OCCc3ccc(NC(=O)COc4cc(-c5scnc5C)ccc4CNC(=O)[C@@H]4C[C@@H](O)CN4C(=O)[C@@H](NC(=O)C4(F)CC4)C(C)(C)C)cc3)n2)c1

Given back:
1 to 100 nM
1 to 100 nM
100 to 10000 nM
100 to 10000 nM
100 to 10000 nM
1 to 100 nM

Dear colleague, could you send me DC50 for each of the items below? Thanks.
1. Cc1cccc(/C=N/Nc2cc(N3CCOCC3)nc(OCCc3ccc(NC(=O)CCCCCCCCC(=O)Nc4cccc5c4C(=O)N(C4CCC(=O)NC4=O)C5)cc3)n2)c1 (stereo not shown)
2. Cc1cccc(/C=N/Nc2cc(N3CCOCC3)nc(OCCc3ccc(NC(=O)CCCCCCCCC(=O)Nc4cccc5c4CN(C4CCC(=O)NC4=O)C5=O)cc3)n2)c1 (stereo not shown)
3. Cc1cccc(/C=N/Nc2cc(N3CCOCC3)nc(OCCc3ccc(NC(=O)CCCCC(=O)Nc4ccc5c(c4)CN(C4CCC(=O)NC4=O)C5=O)cc3)n2)c1 (stereo not shown)

Given back:
100 to 10000 nM
100 to 10000 nM
100 to 10000 nM
